# Target entity: human m4 receptors (Homo sapiens)
# Construct: expressed in transfected cells; host or cells: CHO K1
# Sequence (P08173 whole entry): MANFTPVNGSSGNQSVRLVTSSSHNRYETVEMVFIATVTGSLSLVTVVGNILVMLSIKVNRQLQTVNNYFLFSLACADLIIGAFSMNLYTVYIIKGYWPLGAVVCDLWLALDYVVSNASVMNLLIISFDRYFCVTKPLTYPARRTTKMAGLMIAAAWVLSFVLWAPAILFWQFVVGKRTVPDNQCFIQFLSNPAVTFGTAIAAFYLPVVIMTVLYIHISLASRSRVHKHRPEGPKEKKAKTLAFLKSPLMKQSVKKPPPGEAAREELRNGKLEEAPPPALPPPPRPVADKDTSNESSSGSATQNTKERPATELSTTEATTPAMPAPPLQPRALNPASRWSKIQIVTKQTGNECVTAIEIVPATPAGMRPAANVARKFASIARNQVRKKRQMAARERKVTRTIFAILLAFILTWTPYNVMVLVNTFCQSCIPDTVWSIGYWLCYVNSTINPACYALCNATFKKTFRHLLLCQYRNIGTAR
# Protocol: M4 assay: cyclic AMP accumulation/production in pertussis toxin-treated CHO m4 cells (% maximum stimulation compared to oxotremorine-M)
# Format: cell-based
# Settings: read-out: % Maximum Stimulation Compared to Oxotremorine-M
Outcome measure: Emax (%)
Please respond with the number in % and leave the unit unwritten.

Example cases with answers are listed next.
{"columns": ["Compound", "Value"],
 "data": [
  ["O=C(N[C@H]1c2cc(N=CN3CCCC3)ccc2C[C@@H]1O)C1CCCCC1 (relative stereo)", 34],
  ["O=C(N[C@H]1c2cc(N=CN3CCCC3)ccc2C[C@@H]1O)c1cccc([N+](=O)[O-])c1 (relative stereo)", 43]
]}

Enquiry: Answer briefly: Emax recorded on human m4 receptors (Homo sapiens) for O=C(N[C@@H]1c2cc(N=CN3CCCC3)ccc2C[C@H]1O)c1ccccc1Cl (relative stereo)
Return: 41
